Listing: Fold increase over parent of selected binders
Biological target: T1, cynomolgus MCSP D3 (cynomolgus, UniProt Q6UVK1 1582-2224 (human entry), limits assumed)
T1 construct: also called Cyno MCSP; cynomolgus homologue
T1 chain: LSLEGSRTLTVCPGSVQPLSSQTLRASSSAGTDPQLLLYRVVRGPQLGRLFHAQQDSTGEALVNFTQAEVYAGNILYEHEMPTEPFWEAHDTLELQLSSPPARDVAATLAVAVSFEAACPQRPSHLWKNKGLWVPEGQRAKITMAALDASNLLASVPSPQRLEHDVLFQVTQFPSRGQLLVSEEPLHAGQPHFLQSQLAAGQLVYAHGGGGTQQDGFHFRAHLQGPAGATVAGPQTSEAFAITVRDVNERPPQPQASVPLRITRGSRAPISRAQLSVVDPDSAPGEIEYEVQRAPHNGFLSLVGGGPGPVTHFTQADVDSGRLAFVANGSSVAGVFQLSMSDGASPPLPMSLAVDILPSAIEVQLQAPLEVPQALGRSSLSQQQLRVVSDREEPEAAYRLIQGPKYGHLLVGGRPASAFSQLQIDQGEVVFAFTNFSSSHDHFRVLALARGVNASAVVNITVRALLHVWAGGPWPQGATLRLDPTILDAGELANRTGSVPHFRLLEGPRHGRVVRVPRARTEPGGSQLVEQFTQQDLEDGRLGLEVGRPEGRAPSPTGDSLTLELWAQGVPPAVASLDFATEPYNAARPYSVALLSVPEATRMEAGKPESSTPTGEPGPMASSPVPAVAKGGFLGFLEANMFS
Test: ratio of ProteOn IgG KD, parent M4-3/ML2 against variant
outcome measure: Fold increase over parent (fold)

* M4-3/ML2(G3) IgG (antibody, V domains shown, Human IgG1) VH: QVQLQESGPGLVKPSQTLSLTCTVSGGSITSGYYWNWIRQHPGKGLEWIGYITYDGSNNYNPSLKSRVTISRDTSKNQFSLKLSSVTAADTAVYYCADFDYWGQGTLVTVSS VL: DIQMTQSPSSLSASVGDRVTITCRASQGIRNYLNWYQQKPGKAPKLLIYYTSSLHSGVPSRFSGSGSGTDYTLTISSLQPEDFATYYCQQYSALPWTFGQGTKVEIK | 3.3
* M4-3/ML2(C5) IgG (antibody, V domains shown, Human IgG1) VH: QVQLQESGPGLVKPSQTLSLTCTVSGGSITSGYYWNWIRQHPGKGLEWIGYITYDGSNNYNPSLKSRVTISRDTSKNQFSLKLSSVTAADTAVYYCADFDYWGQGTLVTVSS VL: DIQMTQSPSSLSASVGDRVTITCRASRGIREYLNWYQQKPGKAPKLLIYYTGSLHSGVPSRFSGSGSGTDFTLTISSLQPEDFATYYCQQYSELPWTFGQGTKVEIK | 2
* M4-3(C1)/ML2(E10) IgG (antibody, V domains shown, Human IgG1) VH: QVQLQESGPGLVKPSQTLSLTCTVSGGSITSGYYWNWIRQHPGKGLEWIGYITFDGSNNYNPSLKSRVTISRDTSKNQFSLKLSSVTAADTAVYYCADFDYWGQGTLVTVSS VL: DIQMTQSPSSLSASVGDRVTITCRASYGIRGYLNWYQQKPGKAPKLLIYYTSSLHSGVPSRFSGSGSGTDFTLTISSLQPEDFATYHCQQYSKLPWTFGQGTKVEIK | 3.3
* M4-3(D6)/ML2 IgG (antibody, V domains shown, Human IgG1) VH: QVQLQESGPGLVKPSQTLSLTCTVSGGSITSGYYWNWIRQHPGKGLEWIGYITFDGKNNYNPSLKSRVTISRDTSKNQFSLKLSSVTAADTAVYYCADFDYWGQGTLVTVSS VL: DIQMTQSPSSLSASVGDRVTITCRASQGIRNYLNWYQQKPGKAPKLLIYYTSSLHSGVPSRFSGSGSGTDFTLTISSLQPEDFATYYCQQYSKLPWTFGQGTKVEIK | 2
* M4-3/ML2(C5/G3) IgG (antibody, V domains shown, Human IgG1) VH: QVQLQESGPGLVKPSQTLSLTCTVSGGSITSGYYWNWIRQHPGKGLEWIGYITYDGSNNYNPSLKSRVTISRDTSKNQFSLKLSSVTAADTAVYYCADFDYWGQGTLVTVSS VL: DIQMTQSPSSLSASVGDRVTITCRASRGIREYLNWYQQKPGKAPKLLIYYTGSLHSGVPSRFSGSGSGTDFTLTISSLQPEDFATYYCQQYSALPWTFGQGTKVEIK | 2
